Values compiled from patent US12129237B2.

# tested-on: JNK1 (Homo sapiens, UniProt P45983)
# Construct: purchased Carna Biosciences
# Sequence (P45983 whole entry): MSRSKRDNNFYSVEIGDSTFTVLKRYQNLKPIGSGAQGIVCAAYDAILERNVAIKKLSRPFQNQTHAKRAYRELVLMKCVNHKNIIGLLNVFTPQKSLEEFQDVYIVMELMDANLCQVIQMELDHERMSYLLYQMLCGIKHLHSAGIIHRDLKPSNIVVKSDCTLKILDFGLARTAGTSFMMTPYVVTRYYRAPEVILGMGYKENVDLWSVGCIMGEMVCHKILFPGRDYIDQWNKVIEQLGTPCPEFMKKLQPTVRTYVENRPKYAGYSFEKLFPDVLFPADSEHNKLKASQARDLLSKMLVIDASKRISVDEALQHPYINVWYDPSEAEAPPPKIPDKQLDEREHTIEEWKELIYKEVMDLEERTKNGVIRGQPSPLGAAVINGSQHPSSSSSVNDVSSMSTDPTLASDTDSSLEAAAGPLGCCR
# assay-remarks: JNK1 biochemical assays (one or more of: time resolved fluorescence, Z'-LYTE Cascade, radioactive)
# cond: Table 3; JNK1 IC50 activity level; read-out: Act. Level
result-type: IC50

CC[C@]1(O)CCC[C@@H](Nc2nc(N[C@H]3CC[C@H](OC)CC3)ncc2C#N)C1: < 200 nM
CO[C@H]1CC[C@H](Nc2ncc(C#N)c(N[C@@H]3CCCC[C@H](O)C3)n2)CC1: < 200 nM
N#Cc1cnc(N[C@H]2CC[C@H](OC(F)F)CC2)nc1N[C@@H]1CCCC[C@H](O)C1: < 200 nM
CN(C)C(=O)[C@H]1CC[C@H](Nc2ncc(C#N)c(N[C@@H]3CCC[C@H](O)C3)n2)CC1: < 200 nM
CCO[C@H]1CC[C@H](Nc2ncc(C#N)c(N[C@H]3CC[C@H](O)CC3)n2)CC1: 800 to 1000 nM
CC(C)(C)Nc1ncc(C#N)c(NC(C)(C)C)n1: 200 to 800 nM
CCO[C@H]1CC[C@H](Nc2ncc(C#N)c(N[C@H]3CCCOC3)n2)CC1: 1000 to 10000 nM
N#Cc1cnc(NC2CCC(F)(F)CC2)nc1N[C@@H]1CCC[C@@H]1CO: 200 to 800 nM
CC(C)CCNc1nc(N[C@H]2CC[C@H](O)CC2)ncc1C#N: 1000 to 10000 nM
CN(C)C(=O)[C@H]1CC[C@H](Nc2ncc(C#N)c(N[C@@H]3CCC[C@](C)(O)C3)n2)CC1: < 200 nM

Each compound below has a reported value. Please supply its IC50.
1. [2H]C([2H])([2H])O[C@H]1CC[C@H](Nc2ncc(C#N)c(N[C@@H]3CCC[C@](C)(O)C3)n2)CC1
2. CCO[C@H]1CC[C@H](Nc2ncc(C#N)c(NC3CCOCC3)n2)CC1
3. N#Cc1cnc(N[C@H]2CC[C@H](O)CC2)nc1NC12CC(C1)C2
4. CO[C@H]1CC[C@H](Nc2ncc(C#N)c(N[C@H]3CCCC[C@](C)(O)C3)n2)CC1
5. CO[C@H]1CC[C@H](Nc2ncc(C#N)c(N[C@H]3CC[C@H](O)CC3)n2)CC1
6. C[C@@H]1CC[C@@H](Nc2nc(N[C@H]3CC[C@H](C(=O)N(C)C)CC3)ncc2C#N)C[C@H]1O
7. CO[C@H]1CC[C@H](Nc2ncc(C#N)c(N[C@@H]3CCC[C@](C)(O)C3)n2)CC1

Data returned:
["< 200 nM", "1000 to 10000 nM", "200 to 800 nM", "1000 to 10000 nM", "800 to 1000 nM", "< 200 nM", "< 200 nM"]
